These measurements were taken from the kinase profiling compilation of Christmann-Franck et al. (2016).

Assay target: CSNK1D (human) (UniProt P48730)
Sequence (P48730 whole entry, looked up): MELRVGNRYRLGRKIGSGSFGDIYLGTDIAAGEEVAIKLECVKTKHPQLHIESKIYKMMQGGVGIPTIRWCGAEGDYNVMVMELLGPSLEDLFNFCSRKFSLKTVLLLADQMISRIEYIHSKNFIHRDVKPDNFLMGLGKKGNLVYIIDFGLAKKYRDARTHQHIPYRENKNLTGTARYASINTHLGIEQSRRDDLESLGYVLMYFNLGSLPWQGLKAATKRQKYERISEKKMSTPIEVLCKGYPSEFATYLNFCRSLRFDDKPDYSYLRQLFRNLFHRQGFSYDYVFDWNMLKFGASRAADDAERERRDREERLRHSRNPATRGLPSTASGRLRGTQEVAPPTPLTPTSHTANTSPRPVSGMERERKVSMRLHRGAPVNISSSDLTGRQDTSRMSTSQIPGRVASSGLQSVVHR
Measurement label: pKd
Answers are plain numbers, as −log10 of the molar value.

Query string: Print CSNK1D (human) (UniProt P48730) pKd for COc1cc2ncnc(Oc3cccc(NC(=O)Nc4cc(C(C)(C)C(F)(F)F)on4)c3)c2cc1OC .
Result string: 4.89

----------
Assay target: CSK (human) (UniProt P41240)
Sequence (P41240 whole entry, looked up): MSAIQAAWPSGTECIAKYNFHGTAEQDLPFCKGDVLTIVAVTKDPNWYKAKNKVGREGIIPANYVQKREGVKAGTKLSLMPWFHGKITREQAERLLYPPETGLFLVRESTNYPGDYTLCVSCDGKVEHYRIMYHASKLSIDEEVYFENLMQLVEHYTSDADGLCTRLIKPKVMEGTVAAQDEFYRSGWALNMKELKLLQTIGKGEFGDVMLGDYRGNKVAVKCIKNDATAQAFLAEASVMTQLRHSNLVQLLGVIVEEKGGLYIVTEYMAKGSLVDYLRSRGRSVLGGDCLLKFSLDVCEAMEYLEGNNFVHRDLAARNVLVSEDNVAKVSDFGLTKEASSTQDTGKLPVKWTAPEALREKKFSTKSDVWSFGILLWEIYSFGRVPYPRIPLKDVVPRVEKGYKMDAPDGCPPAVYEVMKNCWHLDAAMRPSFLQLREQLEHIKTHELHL
Measurement label: Kd (nM)
Numbers only, in nM.

Query string: Return reported Kd. Input compound: COc1cc2ncnc(Oc3cccc(NC(=O)Nc4cc(C(C)(C)C(F)(F)F)on4)c3)c2cc1OC
Result string: 700

----------
Assay target: TESK1 (human)
Measurement label: pKd
Answers are plain numbers, as −log10 of the molar value.

Query string: Tell me measured pKd for COc1cc2ncnc(Oc3cccc(NC(=O)Nc4cc(C(C)(C)C(F)(F)F)on4)c3)c2cc1OC please.
Result string: 4.42
